Please provide measured melting point for the entries that follow.

The recorded melting point for entry `Cc1cn2cc(-c3cc4ccc(N5CCN6CCC[C@@H]6C5)cc4oc3=O)nc2cn1` equals 240 to 245 °C

The recorded melting point for entry `Cc1cn2cc(-c3cc4ccc(OCCN(CCO)CCO)cc4oc3=O)nc2c(C)n1` equals 199 to 202 °C

The recorded melting point for entry `CN1CCCN(c2ccc3cc(-c4cn5cc(F)ccc5n4)c(=O)oc3c2)CC1` equals 152 to 155 °C

The recorded melting point for entry `COc1ccncc1-c1cc2ccc(N3CCNCC3)cc2oc1=O` equals 179 to 181 °C

The recorded melting point for entry `Cc1cn2cc(-c3cc4ccc(N5CCCN(C)CC5)cc4oc3=O)nc2c(C)n1` equals 253 to 255 °C

The recorded melting point for entry `C[C@@H]1CN(c2cc(F)c3cc(-c4nc5ccccc5[nH]4)c(=O)oc3c2)C[C@H](C)N1` equals 288 to 294 °C

The recorded melting point for entry `CN1CCN(c2ccc3cc(-c4cn5cccc(C6CC6)c5n4)c(=O)oc3c2)CC1` equals 198 to 202 °C

The recorded melting point for entry `Cc1cn2cc(-c3cc4ccc(N5CCN(C)C(C)(C)C5)cc4oc3=O)nc2c(C)n1` equals 185 to 187 °C

The recorded melting point for entry `Cc1cc(F)c2nc(-c3cc4ccc(N5CC6CCC(C5)N6C)cc4oc3=O)cn2c1` equals 267 to 274 °C

The recorded melting point for entry `C[C@@H]1CN(c2ccc3cc(-c4cn5cc(Cl)cnc5n4)c(=O)oc3c2)CCN1` equals 255 to 259 °C

The recorded melting point for entry `O=c1oc2cc(N3CCNCC3)ccc2cc1Nc1ccc(Cl)cn1` equals 253 to 255 °C

The recorded melting point for entry `O=c1oc2cc(N3CCN4CCC[C@H]4C3)ccc2cc1-c1cn2cccc(F)c2n1` equals 235 to 238 °C

The recorded melting point for entry `Cc1cn2cc(-c3cc4ccc(O[C@@H]5CCN(C)C5)cc4oc3=O)nc2c(C)n1` equals 195 to 202 °C

The recorded melting point for entry `Cc1cn2cc(-c3cc4ccc(CN(C)C)cc4oc3=O)nc2c(C)n1` equals 192 to 196 °C

The recorded melting point for entry `Cc1cn2cc(-c3cc4ccc(N5CCC(N(C)C)CC5)cc4oc3=O)cc2cn1` equals 224 to 227 °C

The recorded melting point for entry `O=c1oc2cc(N3CCNCC3)ccc2cc1-c1cn2ccncc2n1` equals 258 to 260 °C

The recorded melting point for entry `Cc1ccn2cc(-c3cc4ccc(NCCN(C)C)cc4oc3=O)nc2c1` equals 156 to 159 °C
